Each entry below carries its recorded half-life.
procedure details: Pharmacokinetics in rats (plasma) after oral administration
particulars: rat, 5 mg/kg
measurement kind: half-life (h)

>>> numeric_value("[2H]C([2H])([2H])NN(C(=O)c1cc2c3c(c(N)nc2cn1)[C@@H](C)OC3)[C@@H]1COCc2c1ccn1c(C(F)(F)F)cnc21 [Example 362-P1]")
2.7
>>> numeric_value("CNN(C(=O)c1cc2c3c(c(N)nc2cn1)COC3)[C@@H]1COCc2nc(S(F)(F)(F)(F)F)ccc21")
1.9

---

Items are presented alongside their recorded half-life.
procedure details: Pharmacokinetics in rats (plasma) after oral administration
particulars: male, SD, rat, 5 mg/kg
measurement kind: half-life (h)

>>> numeric_value("CNN(C(=O)c1cc2c(cn1)nc(N)c1cnn(C)c12)[C@@H]1COc2cc(S(F)(F)(F)(F)F)ccc21 (single isomer, unassigned) [Example 375-P1]")
3.3
>>> numeric_value("[2H]C([2H])([2H])NN(C(=O)c1ccc2nc(N)c3cnn(C)c3c2c1)C1COCc2c1ccn1c(C(F)(F)F)cnc21 (stereo not drawn) [Example 436]")
10.8
>>> numeric_value("CNN(C(=O)c1cc2c3c(c(N)nc2cn1)COC3)[C@@H]1COCc2c1ccn1c(C(F)(F)F)cnc21 [Example 285]")
4.2
>>> numeric_value("[2H]C([2H])([2H])NN(C(=O)c1ccc2nc(N)c3cnn(C)c3c2c1)[C@@H]1COCc2nc(C(F)(F)F)ccc21 [Example 317]")
1.9
>>> numeric_value("[2H]C([2H])([2H])NN(C(=O)c1cc2c3c(c(N)nc2cn1)COC3)C1COCc2c1ccn1c(C(F)(F)F)cnc21 (stereo not drawn) [Example 371]")
4.4
>>> numeric_value("[2H]C([2H])([2H])NN(C(=O)c1cc2c3c(c(N)nc2cn1)COC3)[C@H]1COCc2c1ccn1c(C(F)(F)F)cnc21 (stereo in doubt) [Example 371-P1]")
1.6

---

The reader will find reported Cmax values listed item by item below.
procedure details: Pharmacokinetics in rats (plasma) after oral administration
particulars: rat, 5 mg/kg
measurement kind: Cmax (ng/mL)

>>> numeric_value("[2H]C([2H])([2H])NN(C(=O)c1cc2c3c(c(N)nc2cn1)[C@@H](C)OC3)[C@@H]1COCc2c1ccn1c(C(F)(F)F)cnc21 [Example 362-P1]")
2750
>>> numeric_value("CNN(C(=O)c1cc2c3c(c(N)nc2cn1)COC3)[C@@H]1COCc2nc(S(F)(F)(F)(F)F)ccc21 [Example 374]")
652

---

procedure details: Pharmacokinetics in rats (plasma) after oral administration
particulars: male, SD, rat, 5 mg/kg
measurement kind: Cmax (ng/mL)

>>> numeric_value("Nc1nc2cnc(C(=O)N(N)C3COCc4c3ccn3c(C(F)(F)F)cnc43)cc2c2c1COC2 (stereo not drawn)")
226
>>> numeric_value("[2H]C([2H])([2H])NN(C(=O)c1cc2c3c(c(N)nc2cc1F)COC3)C1COCc2c1ccn1c(C(F)(F)F)cnc21 (stereo not drawn)")
2330
>>> numeric_value("CNN(C(=O)c1cc2c3c(c(N)nc2cn1)COC3)[C@@H]1COCc2c1ccn1c(C(F)(F)F)cnc21")
999
>>> numeric_value("CNN(C(=O)c1cc2c(cn1)nc(N)c1cnn(C)c12)[C@@H]1COc2cc(S(F)(F)(F)(F)F)ccc21 (single isomer, unassigned) [Example 375-P1]")
287
>>> numeric_value("CNN(C(=O)c1cc2c(cc1F)nc(N)c1cncn12)C1COCc2nc(C(F)(F)F)ccc21 (stereo not drawn)")
233
>>> numeric_value("CNN(C(=O)c1cc2c3c(c(N)nc2cn1)COC3)[C@@H]1COCc2nc(C(F)(F)F)ccc21 [Example 286-P1]")
480
>>> numeric_value("[2H]C([2H])([2H])NN(C(=O)c1ccc2nc(N)c3cnn(C)c3c2c1)C1COCc2c1ccn1c(C(F)(F)F)cnc21 (stereo not drawn)")
143
>>> numeric_value("[2H]C([2H])([2H])NN(C(=O)c1cc2c(cn1)nc(N)c1cnn(C)c12)C1COCc2c1ccn1c(C(F)(F)F)cnc21 (stereo not drawn)")
1690
>>> numeric_value("[2H]C([2H])([2H])NN(C(=O)c1cc2c3c(c(N)nc2cc1C)COC3)C1COCc2c1ccn1c(C(F)(F)F)cnc21 (stereo not drawn)")
360

---

system under test: PRMT5/MEP50-MTA protein complex (Homo sapiens, UniProt O14744)
Construct: purchased Viva Biotech
Sequence (O14744 whole entry): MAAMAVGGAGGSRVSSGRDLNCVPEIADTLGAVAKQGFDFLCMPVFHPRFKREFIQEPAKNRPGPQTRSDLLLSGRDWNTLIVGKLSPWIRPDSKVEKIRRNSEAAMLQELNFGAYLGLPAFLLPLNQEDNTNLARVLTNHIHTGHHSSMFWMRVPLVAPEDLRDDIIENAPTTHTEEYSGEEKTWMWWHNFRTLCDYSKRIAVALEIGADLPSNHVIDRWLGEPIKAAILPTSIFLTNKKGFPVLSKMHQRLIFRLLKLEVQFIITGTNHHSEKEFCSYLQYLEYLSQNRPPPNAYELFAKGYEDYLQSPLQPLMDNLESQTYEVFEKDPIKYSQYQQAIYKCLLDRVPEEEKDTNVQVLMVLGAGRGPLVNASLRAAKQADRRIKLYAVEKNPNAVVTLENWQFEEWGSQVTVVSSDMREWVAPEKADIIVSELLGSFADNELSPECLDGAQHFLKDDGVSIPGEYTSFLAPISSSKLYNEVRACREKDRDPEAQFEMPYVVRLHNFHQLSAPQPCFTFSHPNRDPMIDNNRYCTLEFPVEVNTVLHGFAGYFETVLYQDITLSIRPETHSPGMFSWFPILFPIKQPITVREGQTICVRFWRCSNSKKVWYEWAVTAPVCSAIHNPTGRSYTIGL
Sequence (Q9BQA1 whole entry partner): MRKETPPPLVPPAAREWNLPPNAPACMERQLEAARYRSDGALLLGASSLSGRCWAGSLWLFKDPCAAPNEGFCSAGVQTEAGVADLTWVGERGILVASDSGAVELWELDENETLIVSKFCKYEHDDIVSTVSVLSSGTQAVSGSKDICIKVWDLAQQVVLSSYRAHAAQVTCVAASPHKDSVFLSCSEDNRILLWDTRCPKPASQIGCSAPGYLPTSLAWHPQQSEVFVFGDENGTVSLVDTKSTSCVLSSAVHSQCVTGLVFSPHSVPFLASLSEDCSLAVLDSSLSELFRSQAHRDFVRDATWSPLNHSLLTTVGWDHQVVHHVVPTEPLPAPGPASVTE
procedure details: Thermal shift assay: change in melting temperature of the PRMT5/MEP50-MTA protein complex
Assay type: binding
particulars: compound 8 µM, PRMT5/MEP50 2 µM, MTA 2 µM; Tm minus DMSO vehicle control
measurement kind: ΔTm at 8 µM (°C)

>>> numeric_value("CNN(C(=O)c1cc2c(cc1F)nc(N)c1cncn12)C1COCc2nc(C(F)(F)F)ccc21 (centres unmarked) [Example 279]")
12.2
>>> numeric_value("CN(C(=O)c1ccc2nc(N)c3cnn(C)c3c2c1)C1COCc2c1ccn1cc(Br)nc21 (centres unmarked) [Example 37]")
11.3
>>> numeric_value("Cc1cc2nc(N)c3cncn3c2cc1C(=O)N(C1CC(=C(F)F)C1)C1COCc2c1ccn1c(C(F)(F)F)cnc21 (centres unmarked) [Example 144]")
10.2
>>> numeric_value("[2H]C([2H])([2H])NN(C(=O)c1cc2c3c(c(N)nc2cn1)COC3)C1([2H])COCc2c1ccn1c(C(F)(F)F)cnc21 (centres unmarked) [Example 354]")
10.8
>>> numeric_value("Cc1cc2nc(N)c3cncn3c2cc1C(=O)N(C)C1COCc2c1ccn1c(C(F)(F)F)cnc21 (centres unmarked) [Example 62]")
12.5
>>> numeric_value("CNN(C(=O)c1cc2c(cn1)nc(N)c1cncn12)C1COc2cc(S(F)(F)(F)(F)F)ccc21 (racemic) [Example 385]")
11.6
>>> numeric_value("CN(C(=O)c1ccc2nc(N)c3cnn(C)c3c2c1)[C@@H]1COCc2c1ccn1cc(Br)nc21 [Example 37-P1]")
10.5
>>> numeric_value("CNN(C(=O)c1cc2c(cc1C)nc(N)c1cncn12)[C@@H]1COCc2nc(C(F)(F)F)ccc21 [Example 278-P1]")
12.6
>>> numeric_value("CNN(C(=O)c1cc2c3c(c(N)nc2cc1F)COC3)C1COCc2nc(C(F)(F)F)ccc21 (racemic) [Example 306]")
12.7
>>> numeric_value("[2H]C([2H])([2H])NN(C(=O)c1cc2c3c(c(N)nc2cn1)COC3)C1COCc2c1ccn1c(C(F)(F)F)cnc21 (centres unmarked) [Example 371]")
10.6
>>> numeric_value("CNN(C(=O)c1cc2c3c(c(N)nc2cn1)COC3)C1COCc2nc(C(F)(F)F)ccc21 (centres unmarked) [Example 286]")
10.5
>>> numeric_value("CNN(C(=O)c1cc2c(cn1)nc(N)c1cncn12)C1COCc2nc(S(F)(F)(F)(F)F)ccc21 (centres unmarked) [Example 387]")
12.6
>>> numeric_value("CNN(C(=O)c1cc2c(cc1C)nc(N)c1cnn(C)c12)C1COc2cc(S(F)(F)(F)(F)F)ccc21 (centres unmarked) [Example 451]")
13.7
>>> numeric_value("CNN(C(=O)c1cc2c(cn1)nc(N)c1cnn(C)c12)[C@@H]1COc2cc(S(F)(F)(F)(F)F)ccc21 (single isomer, unassigned) [Example 375-P1]")
13

---

procedure details: Pharmacokinetics in rats (plasma) after oral administration
particulars: male, SD, rat, 5 mg/kg
Overview of recorded AUC(0-inf) for various compounds
measurement kind: AUC(0-inf) (ng·h/mL)

>>> numeric_value("Nc1nc2cnc(C(=O)N(N)C3COCc4c3ccn3c(C(F)(F)F)cnc43)cc2c2c1COC2 (stereo not shown)")
2380
>>> numeric_value("[2H]C([2H])([2H])NN(C(=O)c1ccc2nc(N)c3cnn(C)c3c2c1)C1COCc2c1ccn1c(C(F)(F)F)cnc21 (stereo not shown)")
2030
>>> numeric_value("[2H]C([2H])([2H])NN(C(=O)c1cc2c3c(c(N)nc2cn1)COC3)C1COCc2c1ccn1c(C(F)(F)F)cnc21 (stereo not shown)")
3730
>>> numeric_value("CNN(C(=O)c1cc2c(cc1F)nc(N)c1cncn12)C1COCc2nc(C(F)(F)F)ccc21 (stereo not shown)")
729
>>> numeric_value("[2H]C([2H])([2H])NN(C(=O)c1cc2c3c(c(N)nc2cc1F)COC3)C1COCc2c1ccn1c(C(F)(F)F)cnc21 (stereo not shown)")
9660
>>> numeric_value("[2H]C([2H])([2H])NN(C(=O)c1ccc2nc(N)c3cnn(C)c3c2c1)[C@@H]1COCc2nc(C(F)(F)F)ccc21")
739
>>> numeric_value("Cc1cc2nc(N)c3cncn3c2cc1C(=O)N(C)[C@@H]1COCc2c1ccn1c(C(F)(F)F)cnc21 [Example 62-P1]")
1360
>>> numeric_value("[2H]C([2H])([2H])NN(C(=O)c1cc2c3c(c(N)nc2cc1C)COC3)C1COCc2c1ccn1c(C(F)(F)F)cnc21 (stereo not shown)")
1080
>>> numeric_value("CNN(C(=O)c1cc2c(cn1)nc(N)c1cnn(C)c12)[C@@H]1COc2cc(S(F)(F)(F)(F)F)ccc21 (single isomer, unassigned) [Example 375-P1]")
2130
>>> numeric_value("CNN(C(=O)c1cc2c3c(c(N)nc2cn1)COC3)[C@@H]1COCc2c1ccn1c(C(F)(F)F)cnc21")
4980
>>> numeric_value("CNN(C(=O)c1cc2c3c(c(N)nc2cn1)COC3)[C@@H]1COCc2nc(C(F)(F)F)ccc21 [Example 286-P1]")
1280
>>> numeric_value("[2H]C([2H])([2H])NN(C(=O)c1cc2c3c(c(N)nc2cn1)COC3)[C@H]1COCc2c1ccn1c(C(F)(F)F)cnc21 (stereo in doubt) [Example 371-P1]")
4800
>>> numeric_value("[2H]C([2H])([2H])NN(C(=O)c1cc2c(cn1)nc(N)c1cnn(C)c12)C1COCc2c1ccn1c(C(F)(F)F)cnc21 (stereo not shown)")
11900
